System: HIV strain IIIB (wild type)
experiment summary: microbe, parasite or virus in culture
condition description: strain IIIB; CC50 in mock-infected MT4 CMV-EGFP cells
Protocol: Compounds of the invention were tested for their potency against wild type virus and clinically isolated HIV strains harboring one or more mutations associated with resistance to reverse transcriptase inhibitors. Antiviral activity was evaluated using a cellular assay performed according to the following procedure. The human T-cell line MT4 was engineered with Green Fluorescent Protein (GFP) and a HIV-specific promoter, HIV-1 long terminal repeat (LTR). […]
In this section, each of the molecules is paired with its reported pSI (IIIB) (-log SI; SI = ratio of CC50 to EC50).

Example results:
molecule	assay result
COCc1nc(Nc2ccc(C#N)cc2)nc(Nc2c(C)cc(/C=C/C#N)cc2C)c1C(=O)N1CCN(CCO)CC1	>2.83
COCc1nc(Nc2ccc(C#N)cc2)nc(Nc2c(C)cc(/C=C/C#N)cc2C)c1C(=O)NCCc1cccs1	>3.24
COCc1nc(Nc2ccc(C#N)cc2)nc(Nc2c(C)cc(C=CC#N)cc2C)c1C(=O)NCCc1ccc(S(N)(=O)=O)cc1 (mixture of isomers)	>3.23

With those in mind, consider the next molecule.
Prompt: Form field: reported pSI (IIIB) (-log SI; SI = ratio of CC50 to EC50) of "COCc1nc(Nc2ccc(C#N)cc2)nc(Nc2c(C)cc(/C=C/C#N)cc2C)c1-c1cnccc1OC"
Completion: >3.28
